target: UniProt:P00433; experiment: Comparison of signal intensity (Example 17): maximum signal with HRP; assay type: biochemical, horseradish; details: 1 mM test compound (Formulation 1.0); 3.5×10^−16 moles of HRP
Binary classification by Signal/Background, with 10000 as an inclusive lower bound for Condition met; all other cases are Condition not met.

Request: API: above_or_equal(metric=Signal/Background, cutoff=10000) for item CSC(SC)=C1c2ccccc2N(Cc2ccc(O)cc2)c2ccccc21 [Compound 40]
Response: Condition not met

Request: API: above_or_equal(metric=Signal/Background, cutoff=10000) for item O=S(=O)([O-])CCCOC1CSC(=C2c3ccccc3N(Cc3ccccc3)c3ccccc32)SC1.[Na+] (stereo not drawn) [Compound 47]
Response: Condition not met

Request: API: above_or_equal(metric=Signal/Background, cutoff=10000) for item O=S(=O)([O-])CCCOC1CSC(=C2c3ccccc3N(c3ccccc3)c3ccccc32)SC1.[Na+] (stereo not drawn) [Compound 46]
Response: Condition met

Request: API: above_or_equal(metric=Signal/Background, cutoff=10000) for item O=S(=O)([O-])CCCSC(SCc1ccccc1)=C1c2ccccc2N(c2ccccc2)c2ccccc21.[Na+] [Compound 42]
Response: Condition not met

Request: API: above_or_equal(metric=Signal/Background, cutoff=10000) for item O=P([O-])([O-])OCCCOC1CSC(=C2c3ccccc3N(Cc3ccccc3)c3ccccc32)SC1.[Na+].[Na+] (stereo not drawn) [Compound 48]
Response: Condition not met

Request: API: above_or_equal(metric=Signal/Background, cutoff=10000) for item O=S(=O)([O-])CCCSC(SCc1ccc(Cl)cc1)=C1c2ccccc2N(Cc2ccccc2)c2ccccc21.[Na+] [Compound 41]
Response: Condition met

====

Target: HRP (Armoracia rusticana)
Sequence (P00433 31-338): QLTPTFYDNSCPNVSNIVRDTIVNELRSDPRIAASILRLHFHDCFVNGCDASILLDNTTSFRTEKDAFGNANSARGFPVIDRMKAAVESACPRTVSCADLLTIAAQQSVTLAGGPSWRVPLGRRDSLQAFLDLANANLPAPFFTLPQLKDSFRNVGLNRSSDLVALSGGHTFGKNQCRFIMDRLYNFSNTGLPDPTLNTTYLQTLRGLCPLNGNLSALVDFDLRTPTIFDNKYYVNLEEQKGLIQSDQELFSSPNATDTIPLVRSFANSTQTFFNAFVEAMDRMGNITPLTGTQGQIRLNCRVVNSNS
Assay: Comparison of signal intensity (Example 9): chemiluminescence on reaction of reagent with HRP
Assay type: biochemical, horseradish
Details: 5×10^−5 M compound, 0.01 M tris pH 8, 0.5 mM urea peroxide, 0.1 mM p-phenylphenol, 0.025% Tween 20; 3.5×10^−16 moles of HRP
endpoint.name: Signal/Background
Give the value as a plain number.

Request: Tell me the measured Signal/Background of CSC(SCCCS(=O)(=O)[O-])=C1c2ccccc2N(c2ccccc2)c2ccccc21.[Na+] , please.
Response: 688

Request: Tell me the measured Signal/Background of CSC(SC)=C1c2ccccc2N(c2ccccc2)c2ccccc21 , please.
Response: 8060

Request: Tell me the measured Signal/Background of CSC(SCCCS(=O)(=O)[O-])=C1c2ccccc2N(Cc2ccccc2)c2ccccc21.[Na+] , please.
Response: 533

Request: Tell me the measured Signal/Background of COC(Sc1ccccc1)=C1c2ccccc2N(C)c2ccccc21 [Ref. 2, reference compound] , please.
Response: 325

Request: Tell me the measured Signal/Background of CSC(SC)=C1c2ccccc2N(C)c2ccccc21 , please.
Response: 953

Request: Tell me the measured Signal/Background of CCCCCCCCSC(SCCCS(=O)(=O)[O-])=C1c2ccccc2N(c2ccccc2)c2ccccc21.[Li+] , please.
Response: 7626

====

target: HRP (Armoracia rusticana); assay: Comparison of signal intensity (Example 10): maximum signal with HRP; type: biochemical, horseradish; conditions: 3×10^−4 M compound, 0.025 M tris pH 8, 2.5 mM urea peroxide, 4 mM p-hydroxycinnamic acid; 3.5×10^−16 moles of HRP
Entries whose Signal/Background is below 7000 take TRUE; entries at or above 7000 take FALSE.

Request: State whether 7000 exceeds Signal/Background recorded for CSC(SCCCS(=O)(=O)[O-])=C1c2ccccc2N(Cc2ccc(Cl)cc2)c2ccccc21.[Na+] .
Response: TRUE

Request: State whether 7000 exceeds Signal/Background recorded for O=S(=O)([O-])CCCSC(SCc1ccccc1)=C1c2ccccc2N(Cc2ccccc2)c2ccccc21.[Na+] .
Response: FALSE

Request: State whether 7000 exceeds Signal/Background recorded for COc1ccc(CN2c3ccccc3C(=C(SC)SCCCS(=O)(=O)[O-])c3ccccc32)cc1.[Na+] .
Response: TRUE

Request: State whether 7000 exceeds Signal/Background recorded for CSC(SCCCS(=O)(=O)[O-])=C1c2ccccc2N(c2ccccc2)c2ccccc21.[Na+] .
Response: TRUE
